Biological target: Acetylcholinesterase (Homo sapiens, UniProt P22303)
Sequence (P22303 whole entry): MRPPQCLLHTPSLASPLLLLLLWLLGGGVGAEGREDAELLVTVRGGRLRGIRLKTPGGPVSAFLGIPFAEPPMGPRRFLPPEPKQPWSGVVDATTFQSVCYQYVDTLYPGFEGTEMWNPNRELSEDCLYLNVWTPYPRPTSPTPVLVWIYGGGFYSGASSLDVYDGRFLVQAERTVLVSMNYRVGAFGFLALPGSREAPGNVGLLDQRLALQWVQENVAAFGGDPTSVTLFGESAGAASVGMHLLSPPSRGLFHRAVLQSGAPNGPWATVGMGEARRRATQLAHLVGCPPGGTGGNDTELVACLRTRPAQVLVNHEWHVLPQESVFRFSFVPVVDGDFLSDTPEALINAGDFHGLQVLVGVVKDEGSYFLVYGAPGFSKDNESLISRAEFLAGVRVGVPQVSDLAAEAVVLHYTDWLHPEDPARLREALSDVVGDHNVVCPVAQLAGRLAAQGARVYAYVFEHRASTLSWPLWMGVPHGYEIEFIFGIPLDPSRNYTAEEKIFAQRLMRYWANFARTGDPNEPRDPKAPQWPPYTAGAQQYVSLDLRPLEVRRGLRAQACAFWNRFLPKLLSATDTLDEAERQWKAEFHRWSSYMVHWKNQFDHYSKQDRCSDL
Experiment: Inhibition of human recombinant AChE using acetylthiocholine iodide as substrate after 20 mins preincubation by Ellman method
// returns 0 unless IC50 is strictly below 2000 nM, in which case 1

Does this molecule meet the criterion IC50 < 2000 nM? `CCN(CCCCCCNC1=CC(=O)C(C)=C(C)C1=O)Cc1ccccc1OC`
1

Does this molecule meet the criterion IC50 < 2000 nM? `COC1=CC(=O)C(N2CCC(C3CCN(Cc4ccccc4OC)CC3)CC2)=CC1=O`
0

Does this molecule meet the criterion IC50 < 2000 nM? `CCN(CCCCCCNC1=CC(=O)c2ccccc2C1=O)Cc1ccccc1OC`
1

Does this molecule meet the criterion IC50 < 2000 nM? `CCN(CCCCCCNC1=CC(=O)c2ncccc2C1=O)Cc1ccccc1OC`
1

Does this molecule meet the criterion IC50 < 2000 nM? `COc1ccccc1CN1CCC(N2CCC(NC3=CC(=O)c4ccccc4C3=O)CC2)CC1`
0

Does this molecule meet the criterion IC50 < 2000 nM? `COc1ccccc1CNCCCCCCNC1=CC(=O)c2ccccc2C1=O`
1

Does this molecule meet the criterion IC50 < 2000 nM? `CCN(CCCCCCNC1=CC(=O)C(OC)=CC1=O)Cc1ccccc1OC`
1

Does this molecule meet the criterion IC50 < 2000 nM? `NCCCCCCNC1=CC(=O)c2ccccc2C1=O`
0
